biological target: Cytochrome P450 2C9 (Homo sapiens)
Sequence (P11712 whole entry): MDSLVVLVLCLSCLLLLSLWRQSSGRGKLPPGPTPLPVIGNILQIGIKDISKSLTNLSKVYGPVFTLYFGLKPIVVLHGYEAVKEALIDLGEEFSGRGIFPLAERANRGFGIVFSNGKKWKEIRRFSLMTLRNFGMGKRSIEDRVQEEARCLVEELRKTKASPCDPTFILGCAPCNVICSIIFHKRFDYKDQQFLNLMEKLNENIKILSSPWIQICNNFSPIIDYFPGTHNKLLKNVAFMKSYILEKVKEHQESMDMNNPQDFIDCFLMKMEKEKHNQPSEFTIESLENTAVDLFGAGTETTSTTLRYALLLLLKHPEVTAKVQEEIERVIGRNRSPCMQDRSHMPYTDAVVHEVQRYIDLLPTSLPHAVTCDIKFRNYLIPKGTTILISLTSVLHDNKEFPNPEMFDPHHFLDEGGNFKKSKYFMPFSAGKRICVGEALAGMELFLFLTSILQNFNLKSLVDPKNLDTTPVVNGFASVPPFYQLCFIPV
VALUE_TYPE: pIC50
Recall that pIC50 is obtained by taking minus log10 of the concentration measured in molar.

// pIC50 lookup, compound = CN(C)C1CCN(c2cccc3c2C[C@H](CN(C)[C@H]2CCCc4cccnc42)NC3)CC1 , result: 5.18

###

experiment: C8h in CD-1 mouse at 30 mg/kg, po or at 3 mg/kg, iv measured up to 8 hrs by UPLC-MS/MS analysis; details: in vivo
VALUE_TYPE: C8h at 8 h (ng/mL)
Enter your answer as a number in ng/mL; do not include the unit.

Reported C8h at 8 h for CN1CCN(Nc2cccc3c2CC(CN(C)[C@H]2CCCc4cccnc42)NC3)CC1 (single isomer, unassigned) was 297

###

Kindly state pIC50 for each of the entries shown.
molecular target: C-X-C chemokine receptor type 4 (Homo sapiens, UniProt P61073); assay: Antagonist activity at CXCR4 receptor in human CCRF-CEM cells assessed as inhibition of SDF-1alpha-induced calcium release preincubated for 25 mins followed by SDF-1alpha addition and monitered for 90 sec
Sequence (P61073 whole entry): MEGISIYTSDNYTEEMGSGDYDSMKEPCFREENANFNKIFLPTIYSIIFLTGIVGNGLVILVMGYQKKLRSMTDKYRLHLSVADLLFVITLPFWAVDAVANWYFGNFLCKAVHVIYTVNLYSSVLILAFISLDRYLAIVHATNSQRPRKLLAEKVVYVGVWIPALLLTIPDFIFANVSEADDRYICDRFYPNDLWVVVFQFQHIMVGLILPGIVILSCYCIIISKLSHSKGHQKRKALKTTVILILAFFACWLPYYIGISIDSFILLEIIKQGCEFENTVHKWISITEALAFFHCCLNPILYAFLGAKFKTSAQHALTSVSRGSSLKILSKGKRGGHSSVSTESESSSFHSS
Lab note — pIC50 values are minus log10 of concentrations in M.

Given item CN(C[C@H]1Cc2c(cccc2N2CCC(N)CC2)CN1)[C@H]1CCCc2cccnc21 , the value recorded as its pIC50 is 7.48

The recorded pIC50 for entry CN(C)C1CCN(c2cccc3c2C[C@H](CN(C)[C@H]2CCCc4cccnc42)NC3)CC1 equals 7.44

The reported pIC50 of the compound CN(C[C@H]1Cc2c(cccc2NC2CCNCC2)CN1)[C@H]1CCCc2cccnc21 was 7.74

For record CN1CCN(Nc2cccc3c2CC(CN(C)[C@H]2CCCc4cccnc42)NC3)CC1 (single isomer, unassigned) the listed pIC50 is 7.32

###

assay: Volume of distribution in CD-1 mouse at 30 mg/kg, po or at 3 mg/kg, iv by UPLC-MS/MS analysis; format: ADME, organism-based; settings: in vivo
VALUE_TYPE: Vd (L/kg)
Only the number, expressed in L/kg, is required.

Short answer for CN1CCN(Nc2cccc3c2CC(CN(C)[C@H]2CCCc4cccnc42)NC3)CC1 (single isomer, unassigned) : Vd was 9.35

For NCCCCN(Cc1nc2ccccc2[nH]1)[C@H]1CCCc2cccnc21 the compound record lists Vd as 32.2

###

experiment: Permeability of the compound at pH 7.4 incubated for 4 hrs by PAMPA; format: ADME; settings: read-out: permeability
VALUE_TYPE: Papp at 4 h (×10⁻⁶ cm/s)
Answer format: numeric, ×10⁻⁶ cm/s implied, no suffix.

Notebook: CN(C)C1CCN(c2cccc3c2C[C@H](CN(C)[C@H]2CCCc4cccnc42)NC3)C1 (single isomer, unassigned; 37) , Papp at 4 h read as 1.6

Papp at 4 h measured on CN(C)C1CCN(c2cccc3c2C[C@H](CN(C)[C@H]2CCCc4cccnc42)NC3)C1 (single isomer, unassigned; 36) = 1.4

The recorded Papp at 4 h for CN1CCC(N(C)c2cccc3c2C[C@H](CN(C)[C@H]2CCCc4cccnc42)NC3)CC1 is 1

###

target: Cytochrome P450 2D6 (Homo sapiens); assay: Inhibition of human recombinant CYP2D6 expressed in insect cells using AMMC as substrate preincubated for 30 mins followed by NADPH regenerating system addition and measured after 45 mins by fluorescence based assay; format: ADME
Sequence (P10635 whole entry): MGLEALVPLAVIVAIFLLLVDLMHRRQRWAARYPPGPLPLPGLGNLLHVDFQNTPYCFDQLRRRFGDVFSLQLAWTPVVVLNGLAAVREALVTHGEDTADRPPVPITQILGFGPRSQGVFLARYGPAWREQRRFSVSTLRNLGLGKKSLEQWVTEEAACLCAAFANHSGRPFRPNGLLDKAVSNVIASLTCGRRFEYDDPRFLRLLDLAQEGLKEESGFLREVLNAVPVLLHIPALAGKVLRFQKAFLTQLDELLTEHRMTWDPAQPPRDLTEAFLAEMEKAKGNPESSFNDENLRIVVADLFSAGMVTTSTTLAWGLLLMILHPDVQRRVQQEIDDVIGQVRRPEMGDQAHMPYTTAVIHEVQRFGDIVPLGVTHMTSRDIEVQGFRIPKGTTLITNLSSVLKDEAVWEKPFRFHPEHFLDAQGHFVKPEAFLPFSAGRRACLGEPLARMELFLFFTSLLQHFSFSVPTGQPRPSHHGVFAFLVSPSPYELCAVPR
pIC50: −log10 of the molar value.
VALUE_TYPE: pIC50

Per the records, this compound ( CN1C[C@@H]2CN(c3cccc4c3C[C@H](CN(C)[C@H]3CCCc5cccnc53)NC4)C[C@@H]2C1 ) has pIC50 equal to < 4.70

Lab note: measured pIC50 of CN1CCC(N(C)c2cccc3c2C[C@H](CN(C)[C@H]2CCCc4cccnc42)NC3)CC1 was < 4.70

// pIC50 value for CN(C[C@@H]1Cc2c(cccc2NC2CCNCC2)CN1)[C@H]1CCCc2cccnc21 : < 4.70

pIC50 in this record for CN(C)C1CCN(c2cccc3c2C[C@H](CN(C)[C@H]2CCCc4cccnc42)NC3)CC1 : < 4.70

Memo: CN(C[C@H]1Cc2c(cccc2NC2CCNCC2)CN1)[C@H]1CCCc2cccnc21 , reported pIC50: < 4.70

Value of measured pIC50 for the entry CN(C[C@H]1Cc2c(cccc2N[C@H]2CC[C@H](N)CC2)CN1)[C@H]1CCCc2cccnc21 : < 4.70

# compound CN1CCN(Nc2cccc3c2CC(CN(C)[C@H]2CCCc4cccnc42)NC3)CC1 (single isomer, unassigned) ; its pIC50 = < 4.70
